Please go through the items and note down their pIC50.
measuredOn: Tyrosyl-DNA phosphodiesterase 1 (Homo sapiens)
Sequence (Q9NUW8 whole entry): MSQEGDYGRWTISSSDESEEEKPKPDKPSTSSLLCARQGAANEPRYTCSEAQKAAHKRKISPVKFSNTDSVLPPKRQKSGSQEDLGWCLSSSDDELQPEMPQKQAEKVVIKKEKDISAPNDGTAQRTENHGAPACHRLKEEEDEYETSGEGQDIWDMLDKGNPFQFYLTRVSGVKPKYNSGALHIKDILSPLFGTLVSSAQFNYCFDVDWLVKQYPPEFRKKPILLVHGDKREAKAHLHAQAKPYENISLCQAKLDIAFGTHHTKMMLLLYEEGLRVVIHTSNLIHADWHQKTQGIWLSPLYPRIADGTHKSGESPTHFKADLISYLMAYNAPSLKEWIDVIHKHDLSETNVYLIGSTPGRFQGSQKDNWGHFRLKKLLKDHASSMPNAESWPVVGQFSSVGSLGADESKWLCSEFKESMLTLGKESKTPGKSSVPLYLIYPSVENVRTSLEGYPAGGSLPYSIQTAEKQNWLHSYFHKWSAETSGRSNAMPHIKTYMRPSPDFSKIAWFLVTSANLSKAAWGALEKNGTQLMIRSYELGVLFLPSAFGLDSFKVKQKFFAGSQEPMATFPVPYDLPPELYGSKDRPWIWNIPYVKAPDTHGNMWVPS
assayName: Inhibition of TDP1 (unknown origin) using 5'-(5,6 FAM-AAC GTC AGG GTC TTC C- BHQ1)-3' as substrate measured for every 1 min by fluorescence based assay
One number for each entry, as −log10 of the molar value.

Known pIC50 results, listed for orientation:
[[record]]
compoundstructurestring = "COc1ccc(-c2cc(=O)oc3cc(OCC(=O)N[C@H](C(=O)O)c4ccccc4)ccc23)cc1"
measuredon = "Tyrosyl-DNA phosphodiesterase 1 (Homo sapiens)"
resulttype = "pIC50"
number = 4.89

[[record]]
compoundstructurestring = "O=C(NCCc1c[nH]c2ccccc12)c1cc2c([nH]c3ccccc32)c(-c2ccc3c(c2)OCO3)n1"
measuredon = "Tyrosyl-DNA phosphodiesterase 1 (Homo sapiens)"
resulttype = "pIC50"
number = 6.01


input: Can you look up the measured pIC50 of Cc1c(Cc2ccccc2)c(=O)oc2cc(OCC(=O)N[C@@H](CSCc3ccccc3)C(=O)O)ccc12 for me?
output: 5.46

* * *

assayName: Cytotoxicity against human T98G cells assessed as reduction in cell viability after 72 hrs by MTT assay
Assay type: cell-based
experimentalSetup: T98G cells
resultType: CC50 at 72 h (µM)
One number for each entry, in µM.

Known CC50 at 72 h results, listed for orientation:
[[record]]
compoundstructurestring = "O=c1cc(-c2cc3ccccc3oc2=O)c2ccc(OCc3ccccc3Cl)cc2o1"
scaleunit = "µM"
number = 16

[[record]]
compoundstructurestring = "COc1cccc2cc(-c3cc(=O)oc4c(C)c(OCc5ccc(Cl)cc5)ccc34)c(=O)oc12"
scaleunit = "µM"
number = 16


input: Can you look up the measured CC50 at 72 h of Cc1c(CC(=O)N[C@@H](CSCc2ccccc2)C(=O)O)c(=O)oc2c(C)c3occ(-c4ccc(F)cc4)c3cc12 for me?
output: 66

* * *

measuredOn: Tyrosyl-DNA phosphodiesterase 1 (Homo sapiens)
assayName: Inhibition of TDP1 (unknown origin) using 5'-(5,6 FAM-AAC GTC AGG GTC TTC C- BHQ1)-3' as substrate measured after 20 mins by gel-based assay
resultType: pIC50
Answers are plain numbers, as −log10 of the molar value.

input: Can you look up the measured pIC50 of Cc1c(CC(=O)N[C@@H](CSCc2ccccc2)C(=O)O)c(=O)oc2c(C)c3occ(-c4ccc(F)cc4)c3cc12 for me?
output: 5.76
